# Target entity: IKZF2 (Homo sapiens (Human), UniProt Q96SW2+Q9UKS7)
# Sequence (Q9UKS7 whole entry): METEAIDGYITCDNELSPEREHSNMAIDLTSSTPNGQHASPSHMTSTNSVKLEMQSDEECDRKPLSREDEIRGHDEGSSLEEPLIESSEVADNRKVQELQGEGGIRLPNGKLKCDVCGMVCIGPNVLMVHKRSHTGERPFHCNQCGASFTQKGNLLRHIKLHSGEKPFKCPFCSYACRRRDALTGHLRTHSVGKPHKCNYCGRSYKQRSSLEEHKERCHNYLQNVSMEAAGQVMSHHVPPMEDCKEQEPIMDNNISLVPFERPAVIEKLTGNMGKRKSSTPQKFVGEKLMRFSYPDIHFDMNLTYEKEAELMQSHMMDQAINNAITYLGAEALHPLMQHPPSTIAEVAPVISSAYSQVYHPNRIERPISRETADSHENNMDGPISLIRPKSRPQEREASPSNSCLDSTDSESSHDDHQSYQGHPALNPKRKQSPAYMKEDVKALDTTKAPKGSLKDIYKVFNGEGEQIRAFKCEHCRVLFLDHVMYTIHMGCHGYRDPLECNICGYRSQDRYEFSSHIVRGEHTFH
# Sequence (Q96SW2 whole entry): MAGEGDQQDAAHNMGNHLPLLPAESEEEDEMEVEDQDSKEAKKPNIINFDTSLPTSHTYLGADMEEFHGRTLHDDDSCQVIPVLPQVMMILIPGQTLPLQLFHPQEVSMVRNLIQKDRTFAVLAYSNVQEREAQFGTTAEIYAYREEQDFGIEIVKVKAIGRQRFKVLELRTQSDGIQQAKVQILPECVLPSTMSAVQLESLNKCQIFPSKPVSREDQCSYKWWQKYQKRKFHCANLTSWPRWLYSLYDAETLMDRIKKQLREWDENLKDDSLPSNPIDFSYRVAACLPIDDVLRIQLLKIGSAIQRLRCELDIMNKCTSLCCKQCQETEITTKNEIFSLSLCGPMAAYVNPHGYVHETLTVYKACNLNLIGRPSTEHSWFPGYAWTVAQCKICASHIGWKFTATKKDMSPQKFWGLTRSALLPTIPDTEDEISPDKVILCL
# Sequence (Q16531 whole entry partner): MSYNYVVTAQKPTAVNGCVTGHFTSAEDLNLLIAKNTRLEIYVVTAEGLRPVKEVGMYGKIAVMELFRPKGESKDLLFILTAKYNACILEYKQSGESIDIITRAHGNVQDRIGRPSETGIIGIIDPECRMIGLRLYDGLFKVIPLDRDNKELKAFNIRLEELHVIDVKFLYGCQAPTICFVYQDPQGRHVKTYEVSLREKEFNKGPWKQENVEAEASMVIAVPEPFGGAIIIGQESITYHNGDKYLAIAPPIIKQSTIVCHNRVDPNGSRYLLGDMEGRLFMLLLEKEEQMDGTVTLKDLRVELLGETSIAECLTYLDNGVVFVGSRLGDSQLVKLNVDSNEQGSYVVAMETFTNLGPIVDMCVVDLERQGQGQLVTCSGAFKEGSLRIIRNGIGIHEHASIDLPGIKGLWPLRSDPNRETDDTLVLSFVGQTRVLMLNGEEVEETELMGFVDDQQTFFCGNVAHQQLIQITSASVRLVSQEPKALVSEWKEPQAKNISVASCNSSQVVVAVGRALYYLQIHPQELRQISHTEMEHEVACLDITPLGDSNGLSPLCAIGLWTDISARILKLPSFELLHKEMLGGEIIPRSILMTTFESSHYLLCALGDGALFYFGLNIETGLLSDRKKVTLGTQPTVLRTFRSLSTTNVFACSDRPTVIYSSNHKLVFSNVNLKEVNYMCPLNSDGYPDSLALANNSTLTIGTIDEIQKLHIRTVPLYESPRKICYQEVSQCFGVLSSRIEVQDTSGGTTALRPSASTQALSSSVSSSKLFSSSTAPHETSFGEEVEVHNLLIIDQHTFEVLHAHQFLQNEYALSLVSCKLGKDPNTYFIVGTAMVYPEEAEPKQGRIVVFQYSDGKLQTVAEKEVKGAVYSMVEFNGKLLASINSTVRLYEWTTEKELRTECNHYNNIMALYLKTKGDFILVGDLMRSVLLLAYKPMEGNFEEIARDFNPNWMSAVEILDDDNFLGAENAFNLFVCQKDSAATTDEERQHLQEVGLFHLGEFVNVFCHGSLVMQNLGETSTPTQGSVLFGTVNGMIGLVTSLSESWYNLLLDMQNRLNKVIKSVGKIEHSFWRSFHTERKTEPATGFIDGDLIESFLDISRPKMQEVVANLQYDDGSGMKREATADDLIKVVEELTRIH
# Procedure summary: IKZF2 HiBiT Assay (Jurkat-IKZF2-HiBiT cell line)
# Format: cell-based
# Condition info: Jurkat-IKZF2-HiBiT cells, 24 hours; read-out: HiBit assay degradation analysis Dmax
Observable: Dmax

These recorded examples may help you get a feel for the data.
* O=C1CCC(N2Cc3c(ccc4c3OCC43CCN(Cc4cccc5sccc45)CC3)C2=O)C(=O)N1 (stereo not drawn) | > 80%
* O=C1CCC(N2Cc3c(ccc4c3OCC43CCN(Cc4ccnn4-c4ccccc4)CC3)C2=O)C(=O)N1 (stereo not drawn) | < 40%

# Dmax of O=C1CCC(N2Cc3c(ccc4c3OCC43CCN(Cc4cnc5c(c4)CCCC5)CC3)C2=O)C(=O)N1 (stereo not drawn) = < 40%

# Dmax of O=C1CCC(N2Cc3c(ccc4c3OCC43CCN(Cc4ccc5cc[nH]c5n4)CC3)C2=O)C(=O)N1 (stereo not drawn) = 40 to 60%

# Dmax of CN(C)C(=O)c1ccc(CN2CCC3(CC2)COc2c3ccc3c2CN(C2CCC(=O)NC2=O)C3=O)cc1 (stereo not drawn) = < 40%

# Dmax of "COCCn1cc(-c2cccc(CN3CCC4(CC3)COc3c4ccc4c3CN([C@H]3CCC(=O)NC3=O)C4=O)c2)cn1" = 60 to 80%

# Dmax of O=C1CCC(N2Cc3c(ccc4c3OCC43CCN(Cc4ccsc4)CC3)C2=O)C(=O)N1 (stereo not drawn) = 40 to 60%

# Dmax of O=C1CCC(N2Cc3c(ccc4c3OCC43CCN(Cc4cccc5c4CCC5)CC3)C2=O)C(=O)N1 (stereo not drawn) = < 40%

# Dmax of O=C1CCC(N2Cc3c(ccc4c3OCC43CCN(Cc4cccc(-c5cc[nH]n5)c4)CC3)C2=O)C(=O)N1 (stereo not drawn) = 60 to 80%

# Dmax of O=C1CCC(N2Cc3c(ccc4c3OCC43CCN(Cc4ccc(Cl)cc4F)CC3)C2=O)C(=O)N1 (stereo not drawn) = 40 to 60%
